The entries below come with measured Ki values attached.
target: α-Glucosidase (E.C. 3.2.1.20) from Saccharomyces cerevisiae (Saccharomyces cerevisiae, UniProt P53341); construct: purchased Sigma-Aldrich; assay: Kinetic analysis of AGH inhibition (Lineweaver-Burk plot); assay type: biochemical
Sequence (P53341 whole entry): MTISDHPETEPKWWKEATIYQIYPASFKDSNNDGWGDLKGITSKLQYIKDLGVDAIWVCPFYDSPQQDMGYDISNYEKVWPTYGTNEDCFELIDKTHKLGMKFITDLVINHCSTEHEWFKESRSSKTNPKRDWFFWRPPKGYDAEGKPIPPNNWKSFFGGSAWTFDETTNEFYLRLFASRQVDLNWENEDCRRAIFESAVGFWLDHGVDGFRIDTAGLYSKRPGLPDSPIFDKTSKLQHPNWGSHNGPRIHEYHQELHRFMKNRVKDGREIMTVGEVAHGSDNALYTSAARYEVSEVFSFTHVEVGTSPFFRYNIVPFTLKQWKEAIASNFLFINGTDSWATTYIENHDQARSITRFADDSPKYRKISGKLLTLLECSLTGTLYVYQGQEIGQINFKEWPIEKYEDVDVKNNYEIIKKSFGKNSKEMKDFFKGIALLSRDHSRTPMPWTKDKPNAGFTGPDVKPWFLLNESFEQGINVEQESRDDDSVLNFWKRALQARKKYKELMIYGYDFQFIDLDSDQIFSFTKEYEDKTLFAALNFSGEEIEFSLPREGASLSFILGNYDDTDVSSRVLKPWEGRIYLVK

# COMPOUND, OUTPUT_UNIT, Ki
records = [
    ("Oc1cc2c3c(c1)C1c4c(cc(O)cc4C4c5c(cc(O)cc5C3C(c3ccc(O)c(O)c3)O2)OC4c2ccc(O)c(O)c2)OC1c1ccc(O)c(O)c1 (stereo not shown) [Cyperusphenol D (3), Cyperusphenol D]", "µM", 8.63),
    ("Oc1ccc(/C=C/c2c3c(cc4c2[C@@H](c2cc(O)cc(O)c2)[C@H](c2ccc(O)c(O)c2)O4)O[C@H](c2ccc(O)c(O)c2)[C@H]3c2cc(O)cc(O)c2)cc1 [Mesocyperusphenol A (2), mesocyperusphenol A]", "µM", 10.7),
    ("Oc1cc(O)cc(C2c3c(/C=C/c4ccc(O)c(O)c4)cc(O)cc3OC2c2ccc(O)c(O)c2)c1 (stereo not shown) [Scirpusins B (4), Scirpusins B]", "µM", 95.4),
    ("Oc1ccc(/C=C/c2c3c(cc4c2[C@H](c2cc(O)cc(O)c2)[C@@H](c2ccc(O)c(O)c2)O4)O[C@H](c2ccc(O)c(O)c2)[C@H]3c2cc(O)cc(O)c2)cc1 [Cyperusphenol A (1), (E)-cyperusphenol A]", "µM", 11.2),
]

---

molecular target: α-Glucosidase (E.C. 3.2.1.20) from Saccharomyces cerevisiae (Saccharomyces cerevisiae); construct: purchased Sigma-Aldrich; test: α-Glucosidase inhibitory activity assay in vitro (PNPG substrate, absorbance at 405 nm); type: biochemical; conditions: Table 2; read-out: alpha-glucosidase inhibitory IC50

# COMPOUND, IC50 / µM
rows = [
    ("Oc1ccc(/C=C/c2cc(O)cc3c2C(c2cc(O)cc(O)c2)C(c2ccc(O)c(O)c2)O3)cc1 (stereo not shown)", 21.4),
]

---

target: α-Glucosidase (E.C. 3.2.1.20) from Saccharomyces cerevisiae (Saccharomyces cerevisiae, UniProt P53341); construct: purchased Sigma-Aldrich; test: Kinetic analysis of AGH inhibition (Lineweaver-Burk plot); type: biochemical; settings: Lineweaver-Burk plots; Table 2; read-out: alpha-glucosidase inhibitory Ki
pKi: −log10 of the molar value.
MEASURE_NAME: pKi

# COMPOUND, RECORDED_NUMBER
records = [
    ("Oc1ccc(/C=C/c2cc(O)cc3c2C(c2cc(O)cc(O)c2)C(c2ccc(O)c(O)c2)O3)cc1 (stereo not shown)", 3.87),
]
